# SUBJECT_OF_TEST: GST P1-1 (Homo sapiens, UniProt P09211)
# Construct: purchased Sigma-Aldrich
# Sequence (P09211 2-210 limits assumed): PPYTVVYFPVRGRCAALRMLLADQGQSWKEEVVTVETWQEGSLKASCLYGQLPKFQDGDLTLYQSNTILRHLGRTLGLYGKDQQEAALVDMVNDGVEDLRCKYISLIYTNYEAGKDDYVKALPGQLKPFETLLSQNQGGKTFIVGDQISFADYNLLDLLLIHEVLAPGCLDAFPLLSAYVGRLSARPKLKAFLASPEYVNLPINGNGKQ
# ASSAY_OVERVIEW: Determination of IC50 for GST P1-1 enzyme (dose-response / reconfirmation assay)
# Format: biochemical
# TEST_SETTINGS: Table 2, rounded values; read-out: IC50 GSTP1 enzymatic reaction
Counter-ions that a name gives are not always drawn.
Property: IC50; scope: individual compounds
Respond with the bare value in nM.

Some solved cases for reference:
CC(C)N(CCC(=O)c1ccc2ccccc2c1)Cc1ccccc1 [ZM 39923 (hydrochloride)]: 1500
O=C1C(=Cc2cccnc2)C(=O)c2ccccc21: 1300
O=C1CC(=O)c2c(Cl)c(Cl)c(Cl)c(Cl)c21: 900

Query compound follows.
Ask: Sample `Oc1c(Cl)cc(Cl)c(Cl)c1Cc1c(O)c(Cl)cc(Cl)c1Cl` — what was its IC50?
Reply: 400
